- Test system: human EP4 receptor (Homo sapiens, UniProt P35408)
- Construct: expressed in transfected cells
- Sequence (P35408 whole entry): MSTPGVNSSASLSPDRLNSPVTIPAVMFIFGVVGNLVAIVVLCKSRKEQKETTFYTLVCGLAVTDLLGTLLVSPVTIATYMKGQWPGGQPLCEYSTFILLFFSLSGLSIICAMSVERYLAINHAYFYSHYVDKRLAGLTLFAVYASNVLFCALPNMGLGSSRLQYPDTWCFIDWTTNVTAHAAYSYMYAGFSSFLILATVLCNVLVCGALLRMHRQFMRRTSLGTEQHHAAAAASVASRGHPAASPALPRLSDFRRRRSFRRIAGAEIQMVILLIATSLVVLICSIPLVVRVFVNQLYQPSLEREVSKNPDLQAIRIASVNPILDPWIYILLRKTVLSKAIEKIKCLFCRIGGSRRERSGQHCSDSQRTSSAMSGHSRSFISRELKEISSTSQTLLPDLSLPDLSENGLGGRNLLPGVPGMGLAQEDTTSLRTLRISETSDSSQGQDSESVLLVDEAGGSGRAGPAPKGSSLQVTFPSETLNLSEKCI
- Experimental protocol: Binding ability to human EP receptors ([3H]PGE2 displacement), EP4
- Details: membranes expressing human EP4; [3H]PGE2 1 nM; Cheng-Prusoff; read-out: pKi (M) EP4 (converted)
Below, each entry is listed with its recorded Ki.

Quick one: Ki of CC(C)c1ccc(-c2ccc(C(=O)Nc3cccc(CC(=O)O)c3)o2)cc1 ?
> 1e-05 M

Form field: reported Ki of O=C(O)/C=C/c1cccc(NC(=O)c2ccc(-c3cccc(-c4ccccc4)c3)o2)c1
< 1e-06 M

Query (molecule): O=C(O)Cc1cccc(NC(=O)c2cccc(-c3cc(Cl)cc(Cl)c3)n2)c1 ; field requested: Ki
< 1e-06 M

Report Ki for O=C(O)Cc1cccc(NC(=O)c2ccc(-c3cccc(Cl)c3Cl)o2)c1 please.
> 1e-05 M

====

- Test system: human EP2 prostanoid receptors (Homo sapiens)
- Construct: expressed in transfected cells; host or cells: HEK-293
- Experimental protocol: Agonist activity at recombinant human EP2 prostanoid receptors (cAMP in HEK-293 clones)
- Type: cell-based
- Details: functional classification at EP2
Result type: activity (EP2 part)

Consider the worked cases shown below.
Could you share which activity (EP2 part) value was measured for CC(=O)c1cccc(-c2ccc(C(=O)Nc3cccc(CC(=O)O)c3)o2)c1 ?
EP2 agonist

For the compound O=C(Nc1cccc(Cc2nnn[nH]2)c1)c1ccc(-c2cccc(F)c2)o1 , what activity (EP2 part) is on record?
EP2 Agonist

Sample O=C(O)CCc1cccc(NC(=O)c2cccc(-c3cccc(F)c3)n2)c1 — what was its activity (EP2 part)?
EP2 Agonist

Which activity (EP2 part) value belongs to O=C(O)COc1cccc(NC(=O)c2cccc(-c3ccc(F)cc3)n2)c1 ?
EP2 Agonist

What value of activity (EP2 part) has been recorded for this entry: O=C(O)COc1cccc(NC(=O)c2cccc(-c3ccc(Cl)cc3)n2)c1
EP2 Agonist

---
Name the reported activity (EP2 part) value associated with the compound O=C(O)CCc1cccc(NC(=O)c2ccc(-c3cccc(F)c3)o2)c1
EP2 Agonist

Quick one: activity (EP2 part) for O=C(O)/C=C/c1cccc(NC(=O)c2ccc(-c3ccc(F)cc3)o2)c1 ?
EP2 agonist

Any idea what its activity (EP2 part) is? The compound is COc1cccc(-c2ccc(C(=O)Nc3cccc(CC(=O)O)c3)o2)c1
EP2 agonist

Find the recorded activity (EP2 part) belonging to O=C(O)/C=C/c1cccc(NC(=O)c2cc(-c3ccc(F)cc3)ccc2F)c1 and report it.
EP2 Agonist

// activity (EP2 part) lookup, key: O=C(O)/C=C/c1cccc(NC(=O)c2cc(-c3ccccc3)ccc2F)c1
EP2 Agonist

====

- Test system: human EP4 receptor (Homo sapiens, UniProt P35408)
- Construct: expressed in transfected cells
- Experimental protocol: Binding ability to human EP receptors ([3H]PGE2 displacement), EP4
- Details: membranes expressing human EP4; [3H]PGE2 1 nM; Cheng-Prusoff; read-out: pKi (M) EP4 (converted)
Ki values for the molecules below.

Which Ki is listed for O=C(O)COc1cccc(NC(=O)c2ccc(-c3ccccc3)o2)c1 ?
> 1e-05 M

So what's the measured Ki for this one? O=C(O)/C=C/c1cccc(NC(=O)c2ccc(C34CC5CC(CC(C5)C3)C4)o2)c1
> 1e-05 M

Look up Ki: O=C(O)c1cccc(CNC(=O)c2ccc(-c3ccccc3)o2)c1
> 1e-05 M

I have this molecule here, O=C(O)/C=C/c1cccc(NC(=O)c2ccc(-c3cccc(Cl)c3)o2)c1 , and I need its recorded Ki.
< 1e-06 M

Please look at the following molecule next.
Would you mind telling me what Ki value was observed for O=C(O)Cc1cccc(NC(=O)c2csc(-c3ccccc3)n2)c1 ?
> 1e-05 M

====

- Test system: human EP2 prostanoid receptors (Homo sapiens, UniProt P43116)
- Construct: expressed in transfected cells; host or cells: HEK-293
- Sequence (P43116 whole entry): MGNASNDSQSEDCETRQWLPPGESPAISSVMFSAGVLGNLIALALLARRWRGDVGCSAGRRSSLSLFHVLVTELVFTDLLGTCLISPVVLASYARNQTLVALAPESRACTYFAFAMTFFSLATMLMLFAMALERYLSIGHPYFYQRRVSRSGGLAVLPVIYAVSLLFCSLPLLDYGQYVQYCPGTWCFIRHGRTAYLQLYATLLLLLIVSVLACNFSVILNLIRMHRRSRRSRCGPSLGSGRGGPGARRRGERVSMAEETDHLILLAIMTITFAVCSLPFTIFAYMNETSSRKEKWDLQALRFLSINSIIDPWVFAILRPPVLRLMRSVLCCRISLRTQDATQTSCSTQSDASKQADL
- Experimental protocol: Agonist activity at recombinant human EP2 prostanoid receptors (cAMP in HEK-293 clones)
- Assay type: cell-based
- Details: functional classification at EP2
Result type: activity (EP2 part)

For the record O=C(Nc1cccc(Cc2nnn[nH]2)c1)c1ccc(-c2ccc(F)cc2)o1 , what value of activity (EP2 part) is listed for human EP2 prostanoid receptors (Homo sapiens, UniProt P43116)?
EP2 Agonist

# returns recorded activity (EP2 part) (system: human EP2 prostanoid receptors (Homo sapiens, UniProt P43116)) for O=C(O)CCc1cccc(NC(=O)c2cccc(-c3ccccc3)n2)c1
EP2 Agonist

Could you share what activity (EP2 part) was measured for O=C(Nc1ccc2sc(C(=O)O)cc2c1)c1ccc(-c2ccccc2)o1 , tested on human EP2 prostanoid receptors (Homo sapiens, UniProt P43116)?
EP2 Agonist
